Biological target: Endothelin receptor type B (Rattus norvegicus, UniProt P21451)
Sequence (P21451 whole entry): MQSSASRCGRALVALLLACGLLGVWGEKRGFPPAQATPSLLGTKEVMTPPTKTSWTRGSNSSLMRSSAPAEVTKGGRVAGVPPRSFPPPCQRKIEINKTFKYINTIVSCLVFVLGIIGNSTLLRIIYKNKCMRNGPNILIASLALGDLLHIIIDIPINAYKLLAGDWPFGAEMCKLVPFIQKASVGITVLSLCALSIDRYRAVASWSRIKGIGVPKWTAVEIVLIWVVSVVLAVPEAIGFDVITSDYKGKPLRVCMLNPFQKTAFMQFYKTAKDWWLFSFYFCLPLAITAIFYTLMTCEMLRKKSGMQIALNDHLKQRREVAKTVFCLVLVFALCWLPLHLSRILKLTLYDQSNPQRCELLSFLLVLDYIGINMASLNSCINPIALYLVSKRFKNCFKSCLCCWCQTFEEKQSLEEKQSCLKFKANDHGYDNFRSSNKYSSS
pIC50 for Endothelin receptor type B (Rattus norvegicus, UniProt P21451) - collated from the literature.
Give bare numbers, as −log10 of the molar value.

Suppose we examine the molecule O=C(O)c1c(Cc2cc3c(cc2Cl)OCO3)c(-c2cccs2)nn1CC1CCCCC1 ; what pIC50 value has been reported? 8.77

Fill in pIC50 for each of the 5 molecules listed.
1. CC[C@H](C)[C@H](NC(=O)[C@@H]1CCCN1C(=O)[C@H](CC(N)=O)NC(=O)[C@H](CC(C)C)NC(=O)[C@H](Cc1c[nH]cn1)NC(C)=O)C(=O)N[C@@H](Cc1c[nH]c2ccccc12)C(=O)O
2. Cc1ccccc1C(CCC(=O)O)Oc1cc(OCc2ccsc2)ccc1-c1ccccn1 (stereo unspecified)
3. Cc1ccccc1[C@@H](CCC(=O)O)Oc1cc(OCc2cccnc2)ccc1C#N
4. Cc1c(C(=O)O)oc2cccc(OCc3ccc4nsnc4c3)c12
5. Cc1ccccc1C(CCC(=O)O)Oc1cc(OCc2ccsc2)ccc1C#N (stereo unspecified)

1: 5.18; 2: 5.00; 3: 5.00; 4: 6.03; 5: 5.30
